All figures here come from paper PMC12136788.

Molecular target: T1, UNK ZnF1-3 (human, UniProt Q9C0B0 31-174)
T1 sequence: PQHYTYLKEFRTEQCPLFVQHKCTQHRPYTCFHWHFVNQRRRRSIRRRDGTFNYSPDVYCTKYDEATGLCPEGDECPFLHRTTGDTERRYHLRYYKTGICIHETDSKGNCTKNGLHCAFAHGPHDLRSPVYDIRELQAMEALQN
Experiment: nsRBNS (natural sequence RNA bind-n-seq); RBNS binding buffer (assumed for nsRBNS): 25 mM Tris pH 7.5, 150 mM KCl, 3 mM MgCl2, 0.01% Triton X-100, 500 ug/ml BSA, 20 U/ml SUPERase-In, 4 C; UNK is unkempt and MSI1 is Musashi-1; names of the RNAs are library labels; protein concentration not given here; high values mean tight binding
The full ranking holds about 24,000 sequences; the median of “enrichment r” is about 0.99, and the highest 2% start at about 3.7. The list comes from a sample in which the highest values are over-represented; it also holds close analogues and randomly drawn sequences.
MEASUREMENT_NAME: binding signal (enrichment R)
Just the number in enrichment R, nothing appended.

BINDER: chr6:168291551:168291552:+_ENSG00000130396_ENST00000400822|hu_hu|motif|central (ssRNA) RNA: GGGAGUUCUACAGUCCGACGAUCGUGUUUCUUGGUUUUCUUUGGGAUGUGGUCUGGUGGCCUCCUCUUCAACUGAAAGACGGAAAUCCCUUUGUCACUUGGCCAUUCCCUGAAGAUUUGUAAAGGACACUCAUCAUCAUCAAGCAACAGAGGAUUGAGCAUCA
binding signal, enrichment R: 0.53

BINDER: chr8:67197462:67197463:-_ENSMUSG00000031604_ENSMUST00000034015|mus_mus|FALSE|FALSE (ssRNA) RNA: GGGAGUUCUACAGUCCGACGAUCUCCGAACUGACCAGUGUAUGUAAAAGGCUUAAAAGGCAACGUCAACUUCAGCCUCCUAUGGCAUGAAGUGGUGAGUUGUACAUUAAUACUUCCUCCAGUUCCCGAAACCUUUUGGUGAGGCAACAGAGGAUUGAGCAUCA
binding signal, enrichment R: 0.838

Consider the record given below.
What does the data say about its binding signal? Entry: chr7:40134317:40134318:+_ENSG00000065883_ENST00000340829|hu_mus|FALSE|FALSE (ssRNA) RNA: GGGAGUUCUACAGUCCGACGAUCGGAAGGGUCAUUGCUGUUUGUGAGGACUGUGAUAGGACCAUGGCUAUAUUCAAAUCUAUGGUCCUUGUCUCCACUAAACAACAUGGGACCAGCAUUGAGGUAAAUGUCUCCAUAUCCAGCCAACAGAGGAUUGAGCAUCA 0.887
